- method summary: Cytotoxicity by sulforhodamine B (SRB) colorimetric assay
- Assay type: cell-based, African green monkey
- study conditions: African green monkey, Vero cells (kidney fibroblasts); Vero cells, 72 h, SRB, mean ± SD of three repeats
- Description: A cytotoxicity test of selected analogs against African green monkey kidney fibroblast (Vero cells) was obtained from Bioassay Laboratory, BIOTEC, NSTDA, Thailand. […] The OD was determined at a wavelength of 510 nm. […] The IC50 value of each compound was determined from the dose–response curve.
Could you please mark Satisfied for values of CC50 at 72 h below 50 µM and Not satisfied for values at or above it?

Worked cases, answers included:
[
  {
    "compound": "COc1cc(NC(C)CCCN)c2ncccc2c1Oc1ccc(C#N)cc1 (centres unmarked)",
    "label class": "Not satisfied"
  },
  {
    "compound": "COc1cc(NC(C)CCCN)c2ncccc2c1Oc1ccccc1 (centres unmarked)",
    "label class": "Satisfied"
  },
  {
    "compound": "COc1ccc(Oc2c(OC)cc(NC(C)CCCN)c3ncccc23)cc1 (centres unmarked)",
    "label class": "Not satisfied"
  },
  {
    "compound": "COc1cc(NC(C)CCCN)c2ncccc2c1Oc1ccc(C(N)=O)cc1 (centres unmarked)",
    "label class": "Not satisfied"
  },
  {
    "compound": "COc1cc(NC(C)CCCN)c2ncccc2c1Oc1ccc(F)cc1 (centres unmarked)",
    "label class": "Satisfied"
  },
  {
    "compound": "COc1cc(NC(C)CCCN)c2ncccc2c1Oc1ccc(Br)cc1 (centres unmarked)",
    "label class": "Satisfied"
  },
  {
    "compound": "COc1cc(NC(C)CCCNCCCCOc2ccc(C3CCC4(CC3)OOC3(OO4)C4CC5CC(C4)CC3C5)cc2)c2ncccc2c1Oc1ccccc1 (centres unmarked)",
    "label class": "Satisfied"
  }
]

Please examine the following record next.
input: Lab note: confirm whether the reported CC50 at 72 h for this compound is below 50 µM, equality not counting. compound: COc1cc(NC(C)CCCN)c2ncccc2c1Oc1ccc(Cl)cc1 (centres unmarked)
output: Satisfied

---

- method summary: Cytotoxicity by sulforhodamine B (SRB) colorimetric assay
- Type: cell-based, African green monkey
- study conditions: African green monkey; Vero cells, 72 h, SRB, mean ± SD of three repeats
endpoint name: CC50 at 72 h (µM)
Give the number; µM is assumed, so skip it.

input: // lookup CC50 at 72 h for Cc1c2ccncc2c(C)c2c1[nH]c1ccccc12 [EPT, ellipticine, reference compound]
output: 5.97

---

- Test system: hematin polymerization
- method summary: Inhibition of hematin polymerization (heme polymerization assay);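 note: test concentrations in µM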
- Type: biochemical
- study conditions: conc 200, repeat 1
endpoint name: %Inh1 (%)
Give the number; % is assumed, so skip it.

Consider the worked cases shown below.
[
  {
    "compound": "COc1cc(NC(C)CCCN)c2ncccc2c1Oc1ccccc1 (stereo not shown) [7a]",
    "assayed system": "hematin polymerization",
    "endpoint name": "%Inh1",
    "result": 89.17
  },
  {
    "compound": "COc1cc(NC(C)CCCN)c2ncccc2c1Oc1ccc(F)cc1 (stereo not shown) [7f]",
    "assayed system": "hematin polymerization",
    "endpoint name": "%Inh1",
    "result": 67.61
  },
  {
    "compound": "COc1cc(NC(C)CCCN)c2ncccc2c1Oc1ccc(Br)cc1 (stereo not shown) [7c]",
    "assayed system": "hematin polymerization",
    "endpoint name": "%Inh1",
    "result": 63.35
  }
]

input: So what %Inh1 did CCN(CC)CCCC(C)Nc1ccnc2cc(Cl)ccc12 (stereo not shown) [CQ, chloroquine, reference compound] get with hematin polymerization?
output: 96.36

input: How about COc1cc(NC(C)CCCN)c2ncccc2c1Oc1ccc(C#N)cc1 (stereo not shown) [7e] ?
output: 52.26

input: How about COc1cc(NC(C)CCCN)c2ncccc2c1 (stereo not shown) [PQ, primaquine bisphosphate, reference compound] ?
output: 46.18

input: How about COc1cc(NC(C)CCCNCCCCOc2ccc(C3CCC4(CC3)OOC3(OO4)C4CC5CC(C4)CC3C5)cc2)c2ncccc2c1Oc1ccccc1 (stereo not shown) [compound 12] ?
output: 90.25

input: How about COc1cc(NC(C)CCCN)c2ncccc2c1Oc1ccc(Cl)cc1 (stereo not shown) [7d] ?
output: 81.92

input: How about COc1ccc(Oc2c(OC)cc(NC(C)CCCN)c3ncccc23)cc1 (stereo not shown) [7b] ?
output: 67.25

input: How about COc1cc(NC(C)CCCN)c2ncccc2c1Oc1ccc(C(N)=O)cc1 (stereo not shown) [7h] ?
output: 66.71

---

- Tested on: hematin polymerization
- method summary: Inhibition of hematin polymerization (heme polymerization assay);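 note: test concentrations in µM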
- Format: biochemical
- study conditions: conc 100, repeat 1
- Method: The ability of the 5-phenoxy primaquine analogs to inhibit hematin polymerization was investigated using a protocol modified from the one described previously. […] After it was left standing for 15 min, Tween 20 (0.5 μM; Sigma) was added. […] The assay was performed in triplicate, and results were expressed as the percentage of inhibition relative to hemozoin formation in a negative control. […]
endpoint name: %Inh1 (%)
Give the number; % is assumed, so skip it.

Consider the worked cases shown below.
[
  {
    "compound": "COc1cc(NC(C)CCCN)c2ncccc2c1Oc1ccc(C(N)=O)cc1 (stereo not shown)",
    "%Inh1 / %": 39.91
  },
  {
    "compound": "COc1cc(NC(C)CCCN)c2ncccc2c1Oc1ccccc1 (stereo not shown)",
    "%Inh1 / %": 50.68
  },
  {
    "compound": "COc1cc(NC(C)CCCN)c2ncccc2c1Oc1ccc(Br)cc1 (stereo not shown)",
    "%Inh1 / %": 31.46
  },
  {
    "compound": "COc1cc(NC(C)CCCN)c2ncccc2c1Oc1ccc(Cl)cc1 (stereo not shown)",
    "%Inh1 / %": 39.02
  },
  {
    "compound": "COc1cc(NC(C)CCCN)c2ncccc2c1Oc1ccc(F)cc1 (stereo not shown)",
    "%Inh1 / %": 36.82
  }
]

input: // lookup %Inh1 for COc1cc(NC(C)CCCNCCCCOc2ccc(C3CCC4(CC3)OOC3(OO4)C4CC5CC(C4)CC3C5)cc2)c2ncccc2c1Oc1ccccc1 (stereo not shown)
output: 82.20

input: How about COc1cc(NC(C)CCCN)c2ncccc2c1Oc1ccc(C#N)cc1 (stereo not shown) ?
output: 30.12

input: How about COc1ccc(Oc2c(OC)cc(NC(C)CCCN)c3ncccc23)cc1 (stereo not shown) ?
output: 40.12

input: How about CCN(CC)CCCC(C)Nc1ccnc2cc(Cl)ccc12 (stereo not shown) [CQ, chloroquine, reference compound] ?
output: 84.80

input: How about COc1cc(NC(C)CCCN)c2ncccc2c1 (stereo not shown) [PQ, primaquine bisphosphate, reference compound] ?
output: 19.42

---

%Inh2: recorded values
- System: hematin polymerization
- method summary: Inhibition of hematin polymerization (heme polymerization assay);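 note: test concentrations in µM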
- Format: biochemical
- study conditions: conc 2, repeat 2
Give the number; % is assumed, so skip it.

Consider the worked cases shown below.
[
  {
    "compound": "COc1cc(NC(C)CCCN)c2ncccc2c1Oc1ccccc1 (centres unmarked) [7a]",
    "endpoint name": "%Inh2",
    "result": 8.32
  },
  {
    "compound": "COc1cc(NC(C)CCCN)c2ncccc2c1Oc1ccc(C#N)cc1 (centres unmarked) [7e]",
    "endpoint name": "%Inh2",
    "result": 3.87
  },
  {
    "compound": "COc1ccc(Oc2c(OC)cc(NC(C)CCCN)c3ncccc23)cc1 (centres unmarked) [7b]",
    "endpoint name": "%Inh2",
    "result": 5.23
  },
  {
    "compound": "COc1cc(NC(C)CCCN)c2ncccc2c1Oc1ccc(C(N)=O)cc1 (centres unmarked) [7h]",
    "endpoint name": "%Inh2",
    "result": 2.87
  }
]

input: // lookup %Inh2 for COc1cc(NC(C)CCCN)c2ncccc2c1 (centres unmarked) [PQ, primaquine bisphosphate, reference compound]
output: 16.17

---

- System: hematin polymerization
- method summary: Inhibition of hematin polymerization (heme polymerization assay);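 note: test concentrations in µM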
- Type: biochemical
- study conditions: conc 2, repeat 2
- Experimental: The ability of the 5-phenoxy primaquine analogs to inhibit hematin polymerization was investigated using a protocol modified from the one described previously. […] After it was left standing for 15 min, Tween 20 (0.5 μM; Sigma) was added. […] The assay was performed in triplicate, and results were expressed as the percentage of inhibition relative to hemozoin formation in a negative control. […]
Label yes (1) when %Inh2 is at or above 10%; otherwise label no (0).

Worked cases, answers included:
[
  {
    "molecule": "COc1cc(NC(C)CCCNCCCCOc2ccc(C3CCC4(CC3)OOC3(OO4)C4CC5CC(C4)CC3C5)cc2)c2ncccc2c1Oc1ccccc1 (centres unmarked)",
    "label class": "yes (1)"
  },
  {
    "molecule": "CCN(CC)CCCC(C)Nc1ccnc2cc(Cl)ccc12 (centres unmarked) [CQ, chloroquine, reference compound]",
    "label class": "yes (1)"
  },
  {
    "molecule": "COc1cc(NC(C)CCCN)c2ncccc2c1Oc1ccc(Cl)cc1 (centres unmarked)",
    "label class": "no (0)"
  },
  {
    "molecule": "COc1cc(NC(C)CCCN)c2ncccc2c1Oc1ccc(F)cc1 (centres unmarked)",
    "label class": "no (0)"
  }
]

Please examine the following record next.
input: Decide: %Inh2 of COc1cc(NC(C)CCCN)c2ncccc2c1Oc1ccc(Br)cc1 (centres unmarked) >= 10%?
output: no (0)
